Target: GABAa receptor
Assay: GABAa receptor binding assay ([3H]-Flumazenil, RO15-1788 displacement, rat cortical tissue)
Conditions: 0.5 nM 3H-RO15-1788, 30 min at 4° C.
pKi: −log10 of the molar value.
Mark rule met for reported pKi of 8 or greater; mark rule not met for anything smaller.

Please tell me: is the compound O=C(Nc1ccc2ccc(Cl)nc2n1)c1c[nH]c2c1C(=O)CCC2 at or over 8 in terms of pKi?
rule not met

Decide: pKi of O=C(Nc1cccnc1)c1c[nH]c2c1C(=O)CCCC2 >= 8?
rule not met

Kindly determine if pKi recorded for CC1(C)CCc2[nH]cc(C(=O)Nc3nccs3)c2C1=O is above or exactly 8.
rule met

# check: pKi of O=C(Nc1ccccn1)c1c[nH]c2c1C(=O)CCC2 is greater than or equal to 8
rule met

Is reported pKi greater than or equal to 8 here: O=C(Nc1nccs1)c1c[nH]c2c1C(=O)CCCC2
rule met

Check if pKi >= 8 (inclusive). Item: O=C(Nc1ccsc1)c1c[nH]c2c1C(=O)CCC2
rule met
